Quick reference for log10 of EC50 among some molecules
# assay-system: Sphingosine 1-phosphate receptor 4 (Homo sapiens, UniProt O95977)
# Sequence (O95977 whole entry, the tested form may be a part): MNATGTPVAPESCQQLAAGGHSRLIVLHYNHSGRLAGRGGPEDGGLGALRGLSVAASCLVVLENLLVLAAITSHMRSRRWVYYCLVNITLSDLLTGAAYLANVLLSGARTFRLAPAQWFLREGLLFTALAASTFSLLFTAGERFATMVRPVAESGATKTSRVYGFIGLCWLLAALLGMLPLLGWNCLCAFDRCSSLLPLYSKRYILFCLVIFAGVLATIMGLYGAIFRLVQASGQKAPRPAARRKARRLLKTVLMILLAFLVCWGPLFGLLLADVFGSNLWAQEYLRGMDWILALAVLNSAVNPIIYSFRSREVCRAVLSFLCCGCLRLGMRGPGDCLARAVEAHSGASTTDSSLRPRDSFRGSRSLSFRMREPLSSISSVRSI
# assay: Agonist activity at S1P4 receptor in human U2OS cells expressing VP16-GAL4 transcriptional factor and beta-arrestin/TEV protease fusion protein assessed as migration of VP16-GAL4 into nucleus by FRET based beta lactamase reporter gene assay
readout: log10 of EC50 (log10 of the value in nM)

INSERT INTO assay_data (sample_smiles, assay_system, data_value) VALUES
  ('C/N=C1\S/C(=C\c2cc(C)n(-c3ccc(F)c(C#N)c3)c2C)C(=O)N1C', 'Sphingosine 1-phosphate receptor 4 (Homo sapiens, UniProt O95977)', 3.51),
  ('C/N=C1\S/C(=C\c2cc(C)n(-c3ccc(F)cc3F)c2C)C(=O)N1C', 'Sphingosine 1-phosphate receptor 4 (Homo sapiens, UniProt O95977)', 2.32),
  ('N[C@H](CNC(=O)c1cc2c(-c3ccccc3Cc3ccccc3)cccc2[nH]1)C(=O)O', 'Sphingosine 1-phosphate receptor 4 (Homo sapiens, UniProt O95977)', 1.00),
  ('C/N=C1\S/C(=C\c2cc(C)n(-c3ccc(F)cc3)c2C)C(=O)N1C', 'Sphingosine 1-phosphate receptor 4 (Homo sapiens, UniProt O95977)', 2.64),
  ('C/N=C1\S/C(=C\c2cc(C)n(Cc3ccccc3)c2C)C(=O)N1C', 'Sphingosine 1-phosphate receptor 4 (Homo sapiens, UniProt O95977)', 2.42),
  ('C/N=C1\S/C(=C\c2cc(C)n(-c3cccc(F)c3)c2C)C(=O)N1C', 'Sphingosine 1-phosphate receptor 4 (Homo sapiens, UniProt O95977)', 3.20),
  ('COCC/N=C1\S/C(=C\c2cc(C)n(Cc3ccccc3)c2C)C(=O)N1C', 'Sphingosine 1-phosphate receptor 4 (Homo sapiens, UniProt O95977)', 1.83),
  ('C/N=C1/NC(=O)/C(=C/c2cc(C)n(-c3ccccc3F)c2C)S1', 'Sphingosine 1-phosphate receptor 4 (Homo sapiens, UniProt O95977)', 3.56);
